test: Quantitative High-Throughput drug screen in 47 multiple myeloma cell lines against the NCATS MIPE library collection: KMS11_JCRBsus cell viability assay (AID 1919873); note: nearly all actives have a fitted effect of over 50% in size
condition-info: KMS11 myeloma viability, CellTiter-Glo ATP luminescence, 48 h; series mostly up to 45.8 µM
Records with an inconclusive call do not appear. The source made the active and inactive calls. Calls come from the whole dose curve; as a rule, active = well fitted cell-killing curve with a large enough effect; inconclusive = small, poorly fitted or top-dose-only effect, or effect the other way; inactive = no such curve, though single readings can be large or run the other way.
Choose one outcome from this list and give only that: 1 (active), 0 (inactive)

Use the examples below as a reference point.
compound	class-assignment
Cc1ccc(N(CC2=NCCN2)c2cccc(O)c2)cc1	1
CCn1cc(C(=O)O)c(=O)c2cc(F)c(N3CCNC(C)C3)c(F)c21 (configuration not stated)	0
CCN(CC)CCCC(C)Nc1nc(C)cc(Nc2ccc3nc(C)cc(N)c3c2)n1 (configuration not stated)	0
OCCn1cc(-c2cnc3nnn(Cc4ccc5ncccc5c4)c3n2)cn1	0
Nc1nccc(-c2ccc3noc(-c4ccc(Cl)cc4)c3c2)n1	0
O=C1[C@H](Cc2ccc(O)cc2)N2C(=O)CCN(C(=O)NCc3ccccc3)[C@H]2CN1Cc1cccc2ccccc12	1

How did this test come out for "Cc1c(CCOc2ccc(C(=O)O)cc2)c2cc(Cl)ccc2n1C(c1ccccc1)c1ccccc1" ? 0

How did this test come out for "CCCCCCCc1ccc(CCc2cccc(O)c2C(=O)O)cc1" ? 0

How did this test come out for "Nc1nc2[nH]cc(CCc3ccc(C(=O)N[C@@H](CCC(=O)O)C(=O)O)cc3)c2c(=O)[nH]1" ? 1

---

Tested on: CP247
test: qHTS profiling for inhibitors of Plasmodium falciparum proliferation (AID 504749); note: nearly all actives have a fitted effect of over 60% in size
condition-info: P. falciparum in erythrocytes, SYBR Green DNA, 72 h; series mostly up to 28.7 µM
Inconclusive results are not listed. Active and inactive are the calls of the source. Calls come from the whole dose curve; as a rule, active = well fitted inhibition curve with a large enough effect; inconclusive = small, poorly fitted or top-dose-only effect; inactive = flat fitted curve, though single readings scatter.
Choose one outcome from this list and give only that: y (active), n (inactive)

molecule	experimental-target	class-assignment
N=c1nc(N2CCCCC2)cc(N)n1O	CP247	n
NCCCC(N)(C(=O)O)C(F)F (centres undefined)	CP247	n
NCCc1ccc(O)c(O)c1	CP247	n
Cc1[nH]c(=O)c(C#N)cc1-c1ccc2nccn2c1	CP247	n
CC(=O)Oc1ccccc1C(=O)O	CP247	n

How did this test come out for "NC(=O)c1cnccn1" ? n

How did this test come out for "Clc1cccc(Cl)c1NC1=NCCN1" ? n

How did this test come out for "Cc1[nH]c(=O)c(C#N)cc1-c1ccncc1" ? n

How did this test come out for "C1COC(NC(C2CC2)C2CC2)=N1" ? y

---

System: UISO
test: qHTS assay to identify novel small-molecules to repurpose for Merkel cell carcinoma treatment (AID 1296009); note: % is set by controls: 0 for no effect and ±100 for the full control effect; nearly all actives have a fitted effect of over 60% in size
condition-info: MCC and control cell lines, CellTiter-Glo viability, 72 h; series mostly up to 46 µM
Text: MCC is a rare and aggressive neuroendocrine skin cancer with limited treatment options. Approximately 80% of MCCs have the Merkel cell polyomavirus (MCPyV) DNA integrated into the host genome (virus-positive: VP-MCC) and viral oncogenes drive oncogenesis. The remaining MCCs are virus-negative (VN-MCC) and are caused by UV mutagenesis. […] Using cell viability as a readout (CellTiter-Glo assay) we found both overlapping and distinct drugs that can be repurposed for the treatment of VP-MCC and VN-MCC. […]
Records with an inconclusive call do not appear. Active and inactive are the calls of the source. Calls come from the whole dose curve; as a rule, active = well fitted inhibition curve with a large enough effect; inconclusive = small, poorly fitted or top-dose-only effect; inactive = flat fitted curve, though single readings scatter.
Choose one outcome from this list and give only that: active, inactive

Use the examples below as a reference point.
molecule	class-assignment
NC(N)=NC(=O)c1nc(Cl)c(N)nc1N	inactive
NC(=O)c1ccc(I)c([N+](=O)[O-])c1	inactive
Clc1cccc(Cl)c1NC1=NCCN1	inactive
CN1CCN(CCCN2c3ccccc3Sc3ccc(C(F)(F)F)cc32)CC1	inactive
Cc1[nH]c(=O)c(C#N)cc1-c1ccncc1	inactive

Would you kindly look at the next entry?
How did this test come out for COc1ccc(COc2cc3oc(=O)c4cc(C(C)O)ccc4c3cc2OC)cc1 (configuration not stated) ? inactive

---

experimental-target: Cytochrome P450 3A4 (Homo sapiens)
test: qHTS Assay for Inhibitors and Substrates of Cytochrome P450 3A4 (AID 884); note: nearly all actives have a fitted effect of over 50% in size
condition-info: recombinant CYP3A4, Luciferin-PPXE luminescence; series mostly up to 57.1 µM
Results filed as inconclusive are left out. Activity calls are given as the source filed them. Calls come from the whole dose curve; as a rule, active = well fitted inhibition curve with a large enough effect; inconclusive = small, poorly fitted or top-dose-only effect; inactive = no such curve, though single readings can be large or run the other way.
Choose one outcome from this list and give only that: active, inactive

How did this test come out for CC(C)NCC(O)COc1ccc(COCCOC(C)C)cc1 (stereo not drawn) ? inactive

How did this test come out for "O=c1[nH]cnc2[nH]ncc12" ? inactive

How did this test come out for "O=c1n(CCCN2CCN(c3cccc(Cl)c3)CC2)nc2ccccn12" ? inactive

How did this test come out for "Nc1nc2c(ncn2COCCO)c(=O)[nH]1" ? inactive

How did this test come out for "NC(N)=NC(=O)c1nc(Cl)c(N)nc1N" ? inactive

How did this test come out for "CC(C)(Sc1ccc(CCN(CCCCC2CCCCC2)C(=O)NC2CCCCC2)cc1)C(=O)O" ? active

How did this test come out for "CC(=O)Oc1ccccc1C(=O)O" ? inactive

How did this test come out for "CCCC(CCC)C(=O)O" ? inactive

---

test: Quantitative high throughput screen for delayed death inhibitors of the malarial parasite plastid, 96 hour incubation (AID 488745); note: nearly all actives have a fitted effect of over 70% in size
condition-info: Plasmodium falciparum growth; series mostly up to 28.7 µM
Inconclusive results are not listed. Active and inactive are the calls of the source. Calls follow the shape of the dose curve; as a rule, active = well fitted inhibition curve with a large enough effect; inconclusive = small, poorly fitted or top-dose-only effect, or effect the other way; inactive = no such curve, though single readings can be large or run the other way.
Choose one outcome from this list and give only that: y = active, n = inactive

Use the examples below as a reference point.
compound	class-assignment
Cc1ccc(N(CC2=NCCN2)c2cccc(O)c2)cc1	n
Cc1[nH]c(=O)c(C#N)cc1-c1ccc2nccn2c1	n
OC(CN1CCC(Cc2ccc(F)cc2)CC1)c1ccc(Cl)cc1 (stereo not drawn)	y
CC(C)(C)NCC(O)c1ccc(O)c(CO)c1 (stereo not drawn)	n

How did this test come out for "NNCCc1ccccc1" ? n

How did this test come out for "Clc1cccc(Cl)c1NC1=NCCN1" ? n

How did this test come out for "Cc1cnc(NC(=O)C2=C(O)c3ccccc3S(=O)(=O)N2C)s1" ? n

How did this test come out for O=C1CCC(N2C(=O)c3ccccc3C2=O)C(=O)N1 (stereo not drawn) ? n

How did this test come out for NCCCC(N)(C(=O)O)C(F)F (stereo not drawn) ? n

How did this test come out for "N[C@@H]1CONC1=O" ? n

How did this test come out for "CC(C)(Sc1ccc(CCN(CCCCC2CCCCC2)C(=O)NC2CCCCC2)cc1)C(=O)O" ? n

How did this test come out for "CC(C)C[C@H](NC(=O)[C@@H](O)[C@H](N)Cc1ccccc1)C(=O)O" ? y

How did this test come out for CC(C)NCC(O)COc1ccc(COCCOC(C)C)cc1 (stereo not drawn) ? n

---

test: qHTS assay for small molecule agonists of retinoid X receptor alpha signaling (AID 588544)
condition-info: HEK293T RXRa-UAS-bla, beta-lactamase reporter, 18 h; 530 nm emission
Results filed as inconclusive are left out.
Label scheme for max response: lower than -10% is no (0), -10% and above is yes (1).

Use the examples below as a reference point.
molecule	class-assignment
Cc1ccccc1C(OCCN(C)C)c1ccccc1 (stereo not drawn)	yes (1)
O=NN(CCCl)C(=O)NCCCl	yes (1)
O=c1[nH]cnc2[nH]ncc12	yes (1)
CNC[C@H](O)c1cccc(O)c1	no (0)
NC(N)=NC(=O)c1nc(Cl)c(N)nc1N	yes (1)
NC[C@H](O)c1ccc(O)c(O)c1	no (0)

Confirm if max response reported for the molecule "NS(=O)(=O)c1cc2c(cc1Cl)NC=NS2(=O)=O" is -10% or above. yes (1)

---

experimental-target: Glucocorticoid receptor (Homo sapiens) (UniProt P04150)
Sequence (P04150 whole entry, looked up): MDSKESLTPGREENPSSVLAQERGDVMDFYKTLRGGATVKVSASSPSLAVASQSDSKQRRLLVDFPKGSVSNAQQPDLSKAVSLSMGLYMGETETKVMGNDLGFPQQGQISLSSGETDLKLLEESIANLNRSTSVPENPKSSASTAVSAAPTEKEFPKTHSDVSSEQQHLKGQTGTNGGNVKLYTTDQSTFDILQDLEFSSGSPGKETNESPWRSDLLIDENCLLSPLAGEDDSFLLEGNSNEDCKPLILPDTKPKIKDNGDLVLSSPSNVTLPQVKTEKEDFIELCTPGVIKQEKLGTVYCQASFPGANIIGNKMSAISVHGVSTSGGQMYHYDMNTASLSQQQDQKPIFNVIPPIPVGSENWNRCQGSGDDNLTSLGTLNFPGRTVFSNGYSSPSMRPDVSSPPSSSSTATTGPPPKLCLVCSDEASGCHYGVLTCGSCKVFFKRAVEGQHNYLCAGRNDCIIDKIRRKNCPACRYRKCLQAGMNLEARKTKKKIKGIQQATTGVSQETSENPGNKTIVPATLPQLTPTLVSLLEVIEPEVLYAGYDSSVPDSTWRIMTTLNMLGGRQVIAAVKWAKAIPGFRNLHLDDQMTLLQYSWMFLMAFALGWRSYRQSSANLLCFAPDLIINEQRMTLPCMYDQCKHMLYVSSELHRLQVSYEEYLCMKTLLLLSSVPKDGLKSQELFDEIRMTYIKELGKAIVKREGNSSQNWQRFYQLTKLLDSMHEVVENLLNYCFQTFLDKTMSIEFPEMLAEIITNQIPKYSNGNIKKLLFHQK
test: GR-GFP Redistribution (AID 450); note: potency is the fitted concentration of half-maximal effect
condition-info: U2OS GR-GFP nuclear translocation, laser cytometry, 2 h
Calls of active or inactive are those of the source.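 How the source made its calls: active means compounds whose dose series gives a full or clear partial fitted curve of increased nuclear translocation; inconclusive means weak partial curve or effect only at the top dose; inactive means no dose-dependent translocation response.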
readout: Potency

smiles-string	Potency
CC(=O)Oc1ccccc1C(=O)O	> 46 µM (inactive)
NC[C@H](O)c1ccc(O)c(O)c1	> 46 µM (inactive)
O=NN(CCCl)C(=O)NCCCl	> 46 µM (inactive)
CCCC(CCC)C(=O)O	> 46 µM (inactive)
CCC(C)(C)C(=O)O[C@H]1C[C@@H](C)C=C2C=C[C@H](C)[C@H](CC[C@@H]3C[C@@H](O)CC(=O)O3)[C@H]21	> 46 µM (inactive)

Below are 4 compounds. Give each one its Potency.
1. O=c1[nH]cnc2[nH]ncc12
2. N#Cc1ccc(C(c2ccc(C#N)cc2)n2cncn2)cc1
3. CCOC(=O)C1=C[C@]2(CC)CCCN3CCc4c(n1c1ccccc41)[C@@H]32
4. CC(C)C[C@H](NC(=O)[C@@H](O)[C@H](N)Cc1ccccc1)C(=O)O

["> 46 µM (inactive)", "> 20.6 µM (inactive)", "> 20.6 µM (inactive)", "> 46 µM (inactive)"]

---

test: qHTS profiling for inhibitors of Plasmodium falciparum (HB3) proliferation (AID 743324);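 note: 100% = DMSO vehicle wells and 0% = artemisinin-treated control wells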
condition-info: Plasmodium falciparum HB3 blood-stage proliferation; at 28.7 µM (top of the series) unless noted
Source text: Plasmodium falciparum is a virulent malarial parasite that kills 1-2 million people worldwide each year. Transmitted by mosquitoes, the sporozoite form of the parasite enters the blood stream to infect hepatocytes, where they become merozoites that infect red blood cells (erythrocytes). […] Because mature erythrocytes lack DNA, only Plasmodium-derived DNA is detected. […]
I'd appreciate it if you could supply remaining proliferation (% of control), lower = more inhibition values for the items below.
Numbers only, in %.

Below are 2 compounds. Give each one its remaining proliferation (% of control), lower = more inhibition.
1. CS(=O)(=O)Oc1ccc2c(NC(N)=O)c(C(=O)c3ccc(Cl)cc3Cl)oc2c1
2. O=c1[nH]c(-c2ccc(C(F)(F)F)cc2)nc2c1CSCC2

94.7
29.8

Below are 7 compounds. Give each one its remaining proliferation (% of control), lower = more inhibition.
1. CC(C)c1onc(-c2c(Cl)cccc2Cl)c1COc1ccc(/C=C/c2cccc(C(=O)O)c2)c(Cl)c1
2. COc1ccccc1[C@H](c1cccc2ccccc12)[C@@](C)(C#N)C(=O)N1CCC(c2cccc(C(F)(F)F)c2)CC1
3. C[C@@H]1C[C@H]2[C@@H]3CCC4=CC(=O)C=C[C@]4(C)C3(F)[C@@H](O)C[C@]2(C)[C@@]1(O)C(=O)CO (some centres undefined)
4. CC[C@@H](C)[C@H](NC(=O)[C@H](CC1CCCCC1)NC(=O)c1ccno1)C(=O)N1CCC2(CCc3ccccc32)CC1
5. Cc1cc(Nc2nc(N[C@@H](C)c3ncc(F)cn3)ncc2Cl)n[nH]1
6. Cc1cc([C@@H](C)Nc2ccccc2C(=O)O)c2nc(N3CCOCC3)cc(=O)n2c1
7. Cc1cccc(-c2[nH]c(C(C)(C)C)nc2-c2ccc3nccnc3c2)n1

1: 71.7; 2: 0.956; 3: 85.9; 4: -0.621; 5: 101; 6: 31.4; 7: 27
